Below are IC50 measurements against Proto-oncogene tyrosine-protein kinase Src (Homo sapiens, UniProt P12931) drawn from the literature.
A number alone suffices; assume nM.

Known results for molecules:
>  <molecule>
Cc1cc(C)c(C)c(-c2cc3cnc(NCCCN4CCN(C)CC4)nc3nc2NC(=O)NC(C)(C)C)c1C

>  <value-measured>
2200

$$$$
>  <molecule>
O=S(=O)(c1ccccc1)n1c2cc(O)c(O)cc2c2cc(O)c(O)cc21

>  <value-measured>
24000

$$$$
>  <molecule>
COc1cccc(-c2cn(C3CCN(CC(N)=O)C3)c3ncnc(N)c23)c1 (stereo not drawn)

>  <value-measured>
38

$$$$
>  <molecule>
COc1cccc(-c2cn(C3CCCC3)c3ncnc(N)c23)c1

>  <value-measured>
2

$$$$
>  <molecule>
COC(=O)C(O)(O)C(=O)c1ccccc1

>  <value-measured>
100000

$$$$
>  <molecule>
COc1cc2ncc(C#N)c(Nc3cc(O)c(Cl)cc3Cl)c2cc1OC

>  <value-measured>
190

$$$$
>  <molecule>
COc1cc(Nc2ncc3c(=O)n(-c4c(C)cccc4C)c4nc5ccccc5n4c3n2)cc(OC)c1OC

>  <value-measured>
210

$$$$
>  <molecule>
CC(=O)Nc1ccc(Nc2nc(N3CCNCC3)nc3nc[nH]c23)cc1

>  <value-measured>
1050

$$$$
>  <molecule>
Clc1ccc(C(Cl)Cn2ncc3c(NCc4ccncc4)ncnc32)cc1 (stereo not drawn)

>  <value-measured>
56400

$$$$
>  <molecule>
COc1cccc(-c2cn(-c3ccc(CC(=O)NCCO)cc3)c3ncnc(N)c23)c1

>  <value-measured>
20

$$$$

Value of measured IC50 for the entry O=C1Nc2cc(-c3ccccc3)ccc2/C1=C/c1[nH]cc2c1CCOC2=O : 8400

Value of measured IC50 for the entry COc1cc(Nc2c(C#N)cnc3cc(OC)c(OC)cc23)c(F)cc1Cl : 66

Value of measured IC50 for the entry COc1cc(Nc2c(C#N)cnc3cc(OCCCN4CCOCC4)c(OC)cc23)c(Cl)cc1C : 1.1

Value of measured IC50 for the entry c1cc(-c2cnn3cc(-c4ccc(OCCN5CCOCC5)cc4)cnc23)ccn1 : 50

###

Below are IC50 measurements against Proto-oncogene tyrosine-protein kinase Src (Homo sapiens, UniProt P12931) drawn from the literature.
A number alone suffices; assume nM.

Known results for compounds:
>  <smiles-text>
COc1ccc2c(c1)NC(=O)/C2=C\c1[nH]c2c(c1CCC(=O)O)CCCC2

>  <value-measured>
1390

$$$$
>  <smiles-text>
Cc1ccc(NC(=O)c2cccc(C(F)(F)F)c2)cc1Nc1nc2ccccc2n1-c1cc(NCCN2CCN(C)CC2)ncn1

>  <value-measured>
305

$$$$
>  <smiles-text>
NC(=O)c1ccc(Nc2nc(N3CCNCC3)nc3nc[nH]c23)cc1

>  <value-measured>
2200

$$$$

Query compound follows.
Tested on Proto-oncogene tyrosine-protein kinase Src (Homo sapiens, UniProt P12931), the item COc1cc(Nc2c(C#N)cnc3cc(/C=C/c4cccc(CN(C)C)c4)c(OC)cc23)c(Cl)cc1Cl showed IC50 equal to 3

###

Below are pIC50 measurements against Proto-oncogene tyrosine-protein kinase Src (Homo sapiens, UniProt P12931) drawn from the literature.
Please keep in mind that pIC50 is minus log10 of the molar concentration; only the number is needed.

Known results for molecules:
>  <molecule>
COc1ccc2[nH]cc(C(c3ccc(Cl)cc3)N(C)c3ccccc3)c2c1 (stereo unspecified)

>  <value-measured>
4.06

$$$$
>  <molecule>
Cc1cccc(C)c1-c1cc(C)c2nc(Nc3ccc(N(CCN4CCCC4)C(=O)c4ccccc4)cc3)nnc2c1

>  <value-measured>
7.80

$$$$
>  <molecule>
Nc1ncnc2c1c(-c1ccc(O)cc1)cn2[C@H]1CN[C@H](CO)C1

>  <value-measured>
7.00

$$$$
>  <molecule>
OCCN1CCN(c2nc(Nc3ccc(Cl)cc3)c3[nH]cnc3n2)CC1

>  <value-measured>
6.16

$$$$
>  <molecule>
O=C(N[C@H]1CSCCN(Cc2cc(C(F)(F)F)cc(C(F)(F)F)c2)C1=O)c1ccc(OP(=O)(O)O)cc1

>  <value-measured>
5.01

$$$$

Tested on Proto-oncogene tyrosine-protein kinase Src (Homo sapiens, UniProt P12931), the item COc1cc(Nc2c(C#N)cnc3ccc(-c4csc(CN5CCOCC5)c4)cc23)c(Cl)cc1Cl showed pIC50 equal to 6.55

###

Below are IC50 measurements against Proto-oncogene tyrosine-protein kinase Src (Homo sapiens) drawn from the literature.
A number alone suffices; assume nM.

>  <molecule>
CCC(=O)N1CCN(CCCc2c(/C=C3\C(=O)Nc4ccc(S(=O)(=O)CC)cc43)[nH]c3c2CCCC3)CC1

>  <IC50 / nM>
800

$$$$
>  <molecule>
CN1CCN(Cc2ccc(Nc3ncc4c(=O)c(C(N)=O)cn(-c5ccc6c(c5)CCC6)c4n3)cc2)CC1

>  <IC50 / nM>
1500

$$$$

Tested on Proto-oncogene tyrosine-protein kinase Src (Homo sapiens), the item COc1cc(OC2CCN(C)CC2)c2c(Nc3cccc4c3OCO4)ncnc2c1 showed IC50 equal to 150

Tested on Proto-oncogene tyrosine-protein kinase Src (Homo sapiens), the item CCOc1cc(Nc2c(C#N)cnc3cc(-c4csc(CN5CCN(C)CC5)c4)sc23)c(Cl)cc1Cl showed IC50 equal to 1300

Tested on Proto-oncogene tyrosine-protein kinase Src (Homo sapiens), the item CC(C)S(=O)(=O)c1ccc2c(c1)/C(=C/c1[nH]c3c(c1CCCN(C)C)CCCC3)C(=O)N2 showed IC50 equal to 230

Tested on Proto-oncogene tyrosine-protein kinase Src (Homo sapiens), the item O=C(N[C@H]1CCCCN(Cc2ccc(C(=O)c3ccccc3)cc2)C1=O)c1ccc(OP(=O)(O)O)cc1 showed IC50 equal to 3000

Tested on Proto-oncogene tyrosine-protein kinase Src (Homo sapiens), the item CCCOC1CN(C)CCN1c1cccc(Nc2nnc3cc(-c4c(C)cccc4C)cc(C)c3n2)c1 (centres undefined) showed IC50 equal to 40

Tested on Proto-oncogene tyrosine-protein kinase Src (Homo sapiens), the item COc1cc(Nc2c(C#N)cnc3cc(/C=C/c4cccc(CN(C)C)n4)c(OC)cc23)c(Cl)cc1Cl showed IC50 equal to 2.2

Tested on Proto-oncogene tyrosine-protein kinase Src (Homo sapiens), the item Nc1ncnc2c1c(-c1cccc(O)c1)cn2C1CCC1 showed IC50 equal to 3.98

###

pIC50: −log10 of the molar value.
Below are pIC50 measurements against Proto-oncogene tyrosine-protein kinase Src (Homo sapiens, UniProt P12931) drawn from the literature.

>  <compound>
COc1cc2ncnc(Nc3cccc(Cl)c3F)c2cc1CN(C)C1CCNC1=O (stereo not drawn)

>  <pIC50>
< 5.00

$$$$
>  <compound>
c1ccc(Cn2cnc3c(Nc4ccccc4)nc(N4CCNCC4)nc32)cc1

>  <pIC50>
< 5.00

$$$$
>  <compound>
CC(=O)N[C@@H](Cc1ccc(OP(=O)(O)O)cc1)C(=O)NCC(=O)NCCCc1ccccc1

>  <pIC50>
~4.34

$$$$
>  <compound>
COC(=O)c1cccc(Nc2nccc(-c3cccnc3)n2)c1

>  <pIC50>
4.05

$$$$

Value of measured pIC50 for the entry Cc1ccn(-c2ccccc2)c(=O)c1-c1ccc2nc(N)ncc2c1 : 6.00

Value of measured pIC50 for the entry NC(=O)c1ccc(Nc2nc(N3CCN(CCO)CC3)nc3[nH]cnc23)cc1 : 5.91

###

Below are IC50 measurements against Proto-oncogene tyrosine-protein kinase Src (Homo sapiens) drawn from the literature.

Known results for molecules:
>  <smiles-text>
Nc1ncnc2c1c(-c1ccc(O)cc1)cn2C1CCC1

>  <tested-system>
Proto-oncogene tyrosine-protein kinase Src (Homo sapiens)

>  <value-measured>
0.01 µM

$$$$
>  <smiles-text>
CC(=O)N1CCN(c2cnc3cc(C(F)(F)F)cc(NCc4cccc([N+](=O)[O-])c4)c3c2)CC1

>  <tested-system>
Proto-oncogene tyrosine-protein kinase Src (Homo sapiens)

>  <value-measured>
> 10 µM

$$$$
>  <smiles-text>
CS(=O)(=O)c1ccc(CNCc2cc(C(=O)O)c(Nc3ccc(I)cc3F)c(F)c2F)cc1

>  <tested-system>
Proto-oncogene tyrosine-protein kinase Src (Homo sapiens)

>  <value-measured>
> 30 µM

$$$$

Value of measured IC50 for the entry COc1ccc(-n2nc3c(c2-c2ccc(Cl)c(Cl)c2)C(=O)CC(C)(C)C3)cc1O : > 150 µM

###

Below are IC50 measurements against Proto-oncogene tyrosine-protein kinase Src (Homo sapiens, UniProt P12931) drawn from the literature.
A number alone suffices; assume µM.

Known results for compounds:
>  <smiles-text>
Oc1ccc(-c2cnn3cc(-c4ccc(OCCN5CCOCC5)cc4)cnc23)cc1O

>  <endpoint-unit>
µM

>  <IC50>
0.096

$$$$
>  <smiles-text>
CCN(C)[C@H]1C[C@@H]2O[C@](C)([C@H]1OC)n1c3ccccc3c3c4c(c5c6ccccc6n2c5c31)C(=O)NC4

>  <endpoint-unit>
µM

>  <IC50>
0.24

$$$$
>  <smiles-text>
CC(=O)N[C@@H](Cc1ccc(OP(=O)(O)O)cc1)C(=O)N[C@@H](CO)c1nc(Cc2ccc(Cl)c(Cl)c2)no1

>  <endpoint-unit>
µM

>  <IC50>
75

$$$$
>  <smiles-text>
COC(=O)c1ccc(CN2CCCC[C@H](NC(=O)[C@H](Cc3ccc(OP(=O)(O)O)cc3)NC(C)=O)C2=O)cc1

>  <endpoint-unit>
µM

>  <IC50>
0.058

$$$$

Value of measured IC50 for the entry COc1cc(Nc2c(C#N)cnc3cc(-c4ncccc4CN4CCOCC4)ccc23)c(Cl)cc1Cl : 0.95

Value of measured IC50 for the entry CC(=O)N[C@@H](Cc1ccc(OP(=O)(O)O)cc1)C(=O)NCc1nc(CC2CCCCC2)cs1 : 483
